These measurements were taken from the supplement of paper PMC10567573.

B1: UFD1L (parent)
chain: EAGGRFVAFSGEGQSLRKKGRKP

- Variants of: B1
- PROTOCOL TEXT: protein stability index of a GFP-peptide fusion (GPS, HEK-293T) (PSI 1-6); higher = more stable;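 also: lentivirally expressed fusions sorted by FACS into six bins by GFP to DsRed ratio, PSI derived from sequencing read proportions per bin multiplied by bin number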
- RECORDED CONDITIONS: c terminus: native
Rule: protein stability index of 2 or more gives t; anything lower gives f.

Study these solved cases before continuing.
>>> group("K22G")
"t"
>>> group("A8N")
"f"
>>> group("P23Y")
"t"
>>> group("G11L")
"f"
>>> group("F6H")
"f"

Task: Is reported protein stability index greater than or equal to 2 here: G13N
Output: f

Task: Is reported protein stability index greater than or equal to 2 here: E12T
Output: t

Task: Is reported protein stability index greater than or equal to 2 here: L16N
Output: t

Task: Is reported protein stability index greater than or equal to 2 here: R5Q
Output: t

Task: Is reported protein stability index greater than or equal to 2 here: A2H
Output: f

Task: Is reported protein stability index greater than or equal to 2 here: G3E
Output: t
